- Test system: miR-21
- experiment-description: miR-21 luciferase sensor assay in Hela cells
- Format: cell-based
- condition-summary: concentration of anti-miR compound 50.0 (unit not given)
Strand notation (5' to 3'): a small letter for the sugar, then the base; units joined by * are phosphorothioate-linked, units joined directly phosphodiester-linked; [ ] holds rarer units or linkages, { } end groups; capitals alone tell only the bases. e = 2'-O-(2-methoxyethyl) (MOE); l = locked nucleic acid (LNA); [5mC] = 5-methylcytosine
value-kind: fold change in luciferase value relative to the mock treatment (fold change)
A number alone suffices; assume fold change.

Data request: # query: fold change in luciferase value relative to the mock treatment of entry AECSATCSAGTCSTGAUSAAGCSTAE (ACATCAGTCTGATAAGCTA; modified nucleosides, phosphorothioate linkages, chemistry not fully specified) [Compound 25070]
Data returned: 11.00

Data request: Again, but for AE^MeCLAETE^MeCLAEGETE^MeCLTEGEAE^MeTLAEAEGE^MeCLTEAE (antisense eA*l[5mC]*eA*eT*l[5mC]*eA*eG*eT*l[5mC]*eT*eG*eA*lT*eA*eA*eG*l[5mC]*eT*eA) [Compound 25117, variation of 25070: each non-bicyclic nucleoside is 2′-MOE, each cytosine 5-methyl cytosine]
Data returned: 2.91

Data request: Again, but for AECSATCSAGTCSTGAUSAAGCSTAS (antisense ACATCAGTCTGATAAGCTA; cEt and 2'-MOE nucleosides, code letters not given here, further chemistry not given here) [Compound 25923, variation of 25070: 3′-terminal nucleoside is a cEt nucleoside rather than 2′-MOE nucleoside]
Data returned: 10.81

====

- Test system: miR-21
- experiment-description: miR-21 luciferase sensor assay in Hela cells
- Assay type: cell-based
- condition-summary: .16 nM oligonucleotide; Hela cells
value-kind: luciferase value normalized to beta-galactosidase activity

Data request: I'm curious: which luciferase value normalized to beta-galactosidase activity was measured for Te^MeCASA^MeCAST^MeCAGST^MeCTGASTAAGS^MeCTAe (TCAACATCAGTCTGATAAGCTA; cEt, 5-methyl C and phosphorothioate modifications, code letters not given here, further chemistry not given here) [Compound 25067] tested on miR-21?
Data returned: 38

Data request: Again, but for AECSAETECSAEGETECSTEGEAEUSAEAEGECSTEAE (ACATCAGTCTGATAAGCTA; anti-miR; sugar and backbone modifications, code letters not given here, further chemistry not given here) [Compound 25072]
Data returned: 40

Data request: Again, but for TE^MeCAACSATCSAGTCSTGAUSAAGCSTAE (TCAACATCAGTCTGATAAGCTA; modified nucleosides with 5-methyl C, code letters not given here, further chemistry not given here) [Compound 25082]
Data returned: 70

Data request: Again, but for UECEAFAFCFAFUFCFAFGFUFCEUEGEAFUFAFAFGFCFUEAE (antisense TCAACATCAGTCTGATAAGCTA; listed as DNA, chemistry not fully specified) [Compound 25919, reference compound]
Data returned: 40

Data request: Again, but for TE^MeCEAEAECSAETECSAEGETECSTEGEAEUSAEAEGECSTEAE (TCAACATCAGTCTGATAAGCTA; modified nucleosides and phosphorothioate, code letters not given here, further chemistry not given here) [Compound 25068]
Data returned: 45

Data request: Again, but for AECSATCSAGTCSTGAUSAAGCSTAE (ACATCAGTCTGATAAGCTA; modified nucleosides, phosphorothioate linkages, chemistry not fully specified) [Compound 25070]
Data returned: 65

Data request: Again, but for Ae^MeCAST^MeCAGST^MeCTGASTASAGS^MeCTAe (ACATCAGTCTGATAAGCTA; listed as DNA, chemistry not fully specified) [Compound 25071]
Data returned: 48
